B1: 6YSE (parent)
chain: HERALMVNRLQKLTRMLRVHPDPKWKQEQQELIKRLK

Variants of: B1
Assay: folding stability dG (cDNA display proteolysis); higher = more stable
Conditions: PBS, room temperature

[
  {
    "sequenceRecord": "HERALMVNRLQKLTRMLRVHPDPKWKQEQQEMIKRLK",
    "folding stability dG (kcal/mol)": -0.196
  },
  {
    "sequenceRecord": "HERALMVNRLQKLTRMLRVHPDPKWKQEQQTLIKRLK",
    "folding stability dG (kcal/mol)": 0.995
  },
  {
    "sequenceRecord": "HERALMVNRLQKLTRMLRVWPDPKWKQEQQELIKRLK",
    "folding stability dG (kcal/mol)": 1.39
  },
  {
    "sequenceRecord": "HERALMVERLQKLTRMLRVHPDPKWKQEQQELIKRLK",
    "folding stability dG (kcal/mol)": 1.56
  },
  {
    "sequenceRecord": "HERALMVNRLQKLTRMLRVHPDPKWKQEDQELIKRLK",
    "folding stability dG (kcal/mol)": -0.859
  },
  {
    "sequenceRecord": "HERALMVNRLQKLTRMLVVHPDPKWKQEQQELIKRLK",
    "folding stability dG (kcal/mol)": 0.181
  },
  {
    "sequenceRecord": "HERALMVNRLQKLTRMLRVHPDPKWKQEQQELMKRLK",
    "folding stability dG (kcal/mol)": 0.592
  },
  {
    "sequenceRecord": "HERALMVNRLQSLTRMLRVHPDPKWKQEQQELIKRLK",
    "folding stability dG (kcal/mol)": 0.811
  },
  {
    "sequenceRecord": "HERALMVNRLQKLERMLRVHPDPKWKQEQQELIKRLK",
    "folding stability dG (kcal/mol)": 1.19
  },
  {
    "sequenceRecord": "HERALMVNRLQKLTRMLRVHPDPKWDQEQQELIKRLK",
    "folding stability dG (kcal/mol)": -0.129
  },
  {
    "sequenceRecord": "HEVALMVNRLQKLTRMLRVHPDPKWKQEQQELIKRLK",
    "folding stability dG (kcal/mol)": 1.34
  },
  {
    "sequenceRecord": "HERALMVNRLQKLTRMLRVHADPKWKQEQQELIKRLK",
    "folding stability dG (kcal/mol)": 1.18
  },
  {
    "sequenceRecord": "HERALMYNRLQKLTRMLRVHPDPKWKQEQQELIKRLK",
    "folding stability dG (kcal/mol)": 1.67
  },
  {
    "sequenceRecord": "HEYALMVNRLQKLTRMLRVHPDPKWKQEQQELIKRLK",
    "folding stability dG (kcal/mol)": 1.69
  },
  {
    "sequenceRecord": "HERALMVNRLQKLNRMLRVHPDPKWKQEQQELIKRLK",
    "folding stability dG (kcal/mol)": 1.39
  },
  {
    "sequenceRecord": "HERALMVNYLQKLTRMLRVHPDPKWKQEQQELIKRLK",
    "folding stability dG (kcal/mol)": 0.605
  },
  {
    "sequenceRecord": "HERALMVNRLQKLTRMLRVHPDPKWKQEQQELFKRLK",
    "folding stability dG (kcal/mol)": 0.663
  },
  {
    "sequenceRecord": "HERALMVNRLQKLTRMLRVHPDVKWKQEQQELIKRLK",
    "folding stability dG (kcal/mol)": 0.701
  },
  {
    "sequenceRecord": "HERALMVNRLQKLTRMLRVHPDPKWKQEQQELIKRLI",
    "folding stability dG (kcal/mol)": 1.08
  },
  {
    "sequenceRecord": "HERALMVNRLQKLTRMLRVHYDPKWKQEQQELIKRLK",
    "folding stability dG (kcal/mol)": 2.16
  },
  {
    "sequenceRecord": "HERALMVNRLQKLTRMLRVHPDPKWKQEQQELAKRLK",
    "folding stability dG (kcal/mol)": 0.217
  },
  {
    "sequenceRecord": "HERALMVNRLQKLTRMLRVHPDPKWKQEQQELIKVLK",
    "folding stability dG (kcal/mol)": 1.14
  }
]
